assay-metric: melting point

Study these solved cases before continuing.
molecule	melting point
CC(=O)N1CCC(NC(=O)CCl)CC1	120 to 122 °C
O=C(O)Cc1coc(-c2ccc(F)c(F)c2)n1	144 to 146 °C
O=Cc1cn(-c2ccccc2)nc1-c1ccc(Cl)cc1	125 to 127 °C

// each listed molecule needs a value for melting point
1. Nc1ccc(S(=O)(=O)N2CCCCC2)cn1
2. O=C(CCl)N1CCN(S(=O)(=O)c2c(F)cccc2F)CC1
3. COc1ccccc1-c1nn(C)cc1C(=O)O
4. O=C(O)Cc1csc(N2CCNC2=O)n1
5. Cc1cc2nc(Cl)cc(=O)n2o1
6. O=C1NC(=O)N2CCCCC12 (stereo not drawn)
7. N#Cc1ccc(OCCN)nc1
8. CC1C=CC(C(=O)O)C2C(=O)N(c3ccccc3)C(=O)C12 (stereo not drawn)

A:
["171 to 173 °C", "119 to 121 °C", "203 to 205 °C", "179 to 181 °C", "203 to 204 °C", "114 to 116 °C", "101 to 103 °C", "219 to 221 °C"]
